// reported protein stability index per item
B1: CHMP4C (parent)
chain: SSKSRAAPSPQEALVRLRETEEML

variants of: B1; assay: protein stability index of a GFP-peptide fusion (GPS, HEK-293T) (PSI 1-6); higher = more stable; conditions: c terminus: a fixed tail appended;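 also: lentivirally expressed fusions sorted by FACS into six bins by GFP to DsRed ratio, PSI derived from sequencing read proportions per bin multiplied by bin number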
Please state the value as a number alone, without comment.

protein stability index measured on M23K = 2.15

protein stability index measured on A7P = 1.03

protein stability index measured on E12M = 2.05
